# assayed_system: UniProtKB Q9NZC2
# method: Phospho-Syk AlphaScreen/AlphaLISA assay in TREM2 and DAP12 overexpressing HEK293 cells (Example A1)
# Type: cell-based
# Design: expressed in transfected cells
# test_context: HEK293 cells, read-out: hTREM2 EC50
pEC50: −log10 of the molar value.
Please respond with reported pEC50 for every item in the list.

Prompt: pEC50 lookup needed for COc1ccc([C@@H]2CN(c3cc4nc(C)n(C)c(=O)c4c(-c4ccc(Cl)cc4F)n3)CCO2)cc1 [Example 237] , thanks.
Response: 6.30 to 7.30

Prompt: Note, next up: Cc1nc2cc(N3C[C@@H](c4cnn(C)c4)O[C@@H](C)C3)nc(-c3ccc(Cl)cc3F)c2c(=O)n1C (single isomer, unassigned) [Example 29]
Response: 5.52 to 6.30

Prompt: Note, next up: Cc1nc2cc(N3CCO[C@H]([C@@H]4CCO4)C3)nc(-c3ccc(Cl)cc3F)c2c(=O)n1C (single isomer, unassigned) [Example 40]
Response: 5.52 to 6.30

Prompt: Note, next up: COc1ncnc2c1CN(c1cc3nc(C)n(C)c(=O)c3c(-c3ccc(Cl)cc3F)n1)CC2 [Example 116]
Response: 6.30 to 7.30

Prompt: Note, next up: COc1ccc([C@H]2CN(c3cc4nc(C)n(C)c(=O)c4c(-c4ccc(Cl)cc4F)n3)CCO2)cc1 (single isomer, unassigned) [Example 78]
Response: 6.30 to 7.30

Prompt: Note, next up: Cc1nc2cc(N3CCO[C@@H](c4cnn(C)c4)C3)nc(-c3cc(F)ccc3F)c2c(=O)n1C [Example 228]
Response: 5.52 to 6.30

Prompt: Note, next up: Cc1ccc([C@@H]2C[C@H](c3cc4nc(C)n(C)c(=O)c4c(-c4ccc(Cl)cc4F)n3)CCO2)cn1 [Example 274]
Response: 6.30 to 7.30

Prompt: Note, next up: CCCn1c(C)nc2cc(N3CCO[C@H](CC)C3)nc(-c3ccc(Cl)cc3F)c2c1=O [Example 187]
Response: 5.52 to 6.30

Prompt: Note, next up: Cc1nc2cc(N3CCO[C@@H](c4ccnc(OCC(F)(F)F)c4)C3)nc(-c3ccc(Cl)cc3F)c2c(=O)n1C (single isomer, unassigned) [Example 96]
Response: 5.52 to 6.30

Prompt: Note, next up: Cc1cc([C@@H]2CN(c3cc4nc(C)n(C)c(=O)c4c(-c4ccc(Cl)cc4F)n3)CCO2)cc(C)n1 (single isomer, unassigned) [Example 76]
Response: 6.30 to 7.30

Prompt: Note, next up: Cc1nc2cc(N3CCO[C@@H](c4cnn(C5CC5)c4)C3)nc(-c3ccc(Cl)cc3F)c2c(=O)n1C [Example 136]
Response: > 7.30

Prompt: Note, next up: Cc1nc2cc([C@@H]3CCO[C@H](c4cnn(C)c4)C3)nc(-c3ccc(Cl)cc3F)c2c(=O)n1C [Example 275]
Response: > 7.30

Prompt: Note, next up: CCn1c(C)nc2cc(N3CCO[C@H](c4noc(C)n4)C3)nc(-c3ccc(Cl)cc3F)c2c1=O [Example 264]
Response: 6.30 to 7.30

Prompt: Note, next up: Cc1nc2cc(N3CCO[C@@H](c4cnn(C)c4)C3)nc(-c3cc(F)c(Cl)cc3F)c2c(=O)n1C [Example 11]
Response: 6.30 to 7.30

====

Please respond with reported EC50 for every item in the list.
# assayed_system: hTREM2 (Homo sapiens)
# Sequence (Q9NZC2 19-230): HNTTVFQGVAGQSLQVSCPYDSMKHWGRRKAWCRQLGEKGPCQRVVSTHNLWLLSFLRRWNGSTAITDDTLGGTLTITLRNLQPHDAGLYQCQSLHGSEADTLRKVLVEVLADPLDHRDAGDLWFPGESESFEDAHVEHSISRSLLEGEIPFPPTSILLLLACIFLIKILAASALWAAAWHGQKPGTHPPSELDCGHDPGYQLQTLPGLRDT
# Sequence (O43914 22-113 partner): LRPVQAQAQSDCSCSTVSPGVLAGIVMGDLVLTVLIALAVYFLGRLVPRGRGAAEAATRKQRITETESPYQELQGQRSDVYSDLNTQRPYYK
# method: Phospho-Syk AlphaScreen/AlphaLISA assay in TREM2 and DAP12 overexpressing HEK293 cells (Example A1)
# Assay type: cell-based
# Set-up: expressed in transfected cells
# test_context: HEK293 cells, read-out: hTREM2 EC50

Prompt: What reported EC50 corresponds to Cc1nc2cc(N3CC[C@H](C4CC4)C3)nc(-c3ccc(Cl)cc3F)c2c(=O)n1C on hTREM2 (Homo sapiens)?
Response: 3000 to 100000 nM

Prompt: Note, next up: CCn1c(C)nc2cc(N3CCO[C@@H](c4ccnc(C)c4)C3)nc(-c3ccc(F)cc3F)c2c1=O
Response: < 50 nM

Prompt: Note, next up: Cc1nc2cc(N3CC[C@@H](C(F)F)C3)nc(-c3ccc(Cl)cc3F)c2c(=O)n1C
Response: 3000 to 100000 nM

Prompt: Note, next up: Cc1nc2cc(N3CCO[C@H](c4cnn(C)c4)C3)nc(-c3ccc(Cl)cc3F)c2c(=O)n1C [Example 2]
Response: 500 to 3000 nM

Prompt: Note, next up: Cc1nc2cc(N3CCO[C@H](c4cnn(C)c4)C3)nc(-c3ncc(Cl)cc3F)c2c(=O)n1C [Example 217]
Response: 3000 to 100000 nM

Prompt: Note, next up: Cc1nn(C)cc1C1CN(c2cc3nc(C)n(C)c(=O)c3c(-c3ccc(Cl)cc3F)n2)CCO1 (stereo not drawn)
Response: 50 to 500 nM

Prompt: Note, next up: Cc1nc2cc(N3CCO[C@@H](c4cnn(C)c4)C3)nc(-c3ccc(Cl)cc3F)c2c(=O)n1C1CCCCC1
Response: 500 to 3000 nM

Prompt: Note, next up: Cc1nc2cc(N3CCO[C@H](c4cnn(C)c4)C3)nc(-c3ccc(Cl)cc3)c2c(=O)n1C [Example 6]
Response: 500 to 3000 nM

Prompt: Note, next up: Cc1nc2cc(N3CCO[C@@H](c4cnn(C)c4)C3)nc(C3CCCC3)c2c(=O)n1C
Response: 500 to 3000 nM

Prompt: Note, next up: COc1cc([C@H]2C[C@@H](c3cc4nc(C)n(C)c(=O)c4c(-c4ccc(Cl)cc4F)n3)CCO2)ccn1 (single isomer, unassigned)
Response: < 50 nM

Prompt: Note, next up: COc1cccc([C@@H]2CN(c3cc4nc(C)n(C)c(=O)c4c(-c4ccc(Cl)cc4F)n3)CCO2)c1 [Example 238]
Response: 50 to 500 nM

Prompt: Note, next up: Cc1nc2cc(N3CCO[C@H](c4cnn(C)c4)C3)nc(-c3ccc(Cl)cc3)c2c(=O)n1C [Example 220]
Response: 50 to 500 nM

Prompt: Note, next up: Cc1nc2cc(N3CCC[C@@H](c4cnn(C)c4)C3)nc(-c3ccc(Cl)cc3F)c2c(=O)n1C (single isomer, unassigned)
Response: 50 to 500 nM

Prompt: Note, next up: Cc1nc2cc([C@@H]3CCO[C@H](c4cnn(C)c4)C3)nc(-c3ccc(Cl)cc3F)c2c(=O)n1C (single isomer, unassigned) [Example 163]
Response: 3000 to 100000 nM

Prompt: Note, next up: Cc1nc2cc(N3CCO[C@@](C)(C4CC4)C3)nc(-c3ccc(Cl)cc3F)c2c(=O)n1C
Response: 500 to 3000 nM

====

# assayed_system: hTREM2 (Homo sapiens)
# method: Phospho-Syk AlphaScreen/AlphaLISA assay in TREM2 and DAP12 overexpressing HEK293 cells (Example A1)
# Assay type: cell-based
# Set-up: expressed in transfected cells
# test_context: HEK293 cells
measured_parameter: Emax

Example compounds with recorded Emax:
compound | Emax
Cc1nc2cc(N3CCC[C@H](C4CN(C)C4)C3)nc(-c3ccc(Cl)cc3F)c2c(=O)n1C [Example 252] | +++ (Emax>200 and ≤300)
Cc1nc2cc(N3CCO[C@@H](c4cnn(C(F)(F)F)c4)C3)nc(-c3ccc(Cl)cc3F)c2c(=O)n1C [Example 141] | ++++ (Emax>300)
CCc1nnc([C@@H]2CN(c3cc4nc(C)n(C)c(=O)c4c(-c4ccc(Cl)cc4F)n3)CCO2)[nH]1 [Example 241] | +++ (Emax>200 and ≤300)
Cc1nc2cc(N3CCO[C@@H](c4cnn(C)c4)C3)nc(-c3ccc(Cl)cc3)c2c(=O)n1C [Example 5] | ++++ (Emax>300)
COc1cccc([C@@H]2CN(c3cc4nc(C)n(C)c(=O)c4c(-c4ccc(Cl)cc4F)n3)CCO2)c1 [Example 238] | ++++ (Emax>300)
Cc1nc2cc(N3CCO[C@@H](c4cccc(OC(F)(F)F)c4)C3)nc(-c3ccc(Cl)cc3F)c2c(=O)n1C (single isomer, unassigned) [Example 98] | +++ (Emax>200 and ≤300)
Cc1nc2cc(N3CCC(F)(F)[C@@H](c4cnn(C)c4)C3)nc(-c3ccc(Cl)cc3F)c2c(=O)n1C (single isomer, unassigned) [Example 118] | +++ (Emax>200 and ≤300)
Cc1nc2cc(N3CCC[C@@H](N4CCC4)C3)nc(-c3ccc(Cl)cc3F)c2c(=O)n1C [Example 246] | +++ (Emax>200 and ≤300)

Prompt: Emax lookup needed for Cc1nc2cc(N3C[C@@H](C)O[C@@H](c4cnn(C)c4)C3)nc(-c3ccc(Cl)cc3F)c2c(=O)n1C (single isomer, unassigned) [Example 28] , thanks.
Response: +++ (Emax>200 and ≤300)
